Reference source: patent US12617773B2

Let's look at some compounds and their measured pIC50.
Biological target: human CCR6 (Homo sapiens)
Construct: expressed in transfected cells; host or cells: HEK-293
Sequence (P51684 whole entry): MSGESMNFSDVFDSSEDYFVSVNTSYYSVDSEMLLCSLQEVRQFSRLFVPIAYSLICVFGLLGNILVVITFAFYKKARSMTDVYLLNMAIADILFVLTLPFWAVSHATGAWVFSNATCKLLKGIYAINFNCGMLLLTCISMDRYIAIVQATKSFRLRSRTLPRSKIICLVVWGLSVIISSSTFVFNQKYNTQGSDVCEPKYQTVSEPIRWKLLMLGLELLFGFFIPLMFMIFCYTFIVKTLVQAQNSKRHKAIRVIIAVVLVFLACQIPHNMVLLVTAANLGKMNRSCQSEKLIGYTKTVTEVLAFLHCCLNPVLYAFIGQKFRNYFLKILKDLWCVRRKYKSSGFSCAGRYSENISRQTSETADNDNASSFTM
Assay: FLIPR assay (inhibition of CCL20-induced calcium signal)
Format: cell-based
Settings: HEK-293 cells expressing human CCR6; mean values where determined several times; read-out: FLIPR IC50
pIC50: −log10 of the molar value.

COMPOUND	pIC50
CC(C)c1ccc([C@](O)(c2cncc(N3CC4(CCC(F)(F)CC4)OC3=O)c2)C2(C)CN(C)C2)cc1	6.80
CC(C)c1ccc([C@](O)(c2cncc(N3CCC(c4ccccc4)C3)c2)C2(C)CN(C)C2)cc1 (some centres unmarked)	7.33
CC(C)c1ccc([C@](O)(c2cncc(-c3noc(C4CCN(S(=O)(=O)CCO)CC4)n3)c2)C2(C)CN(C)C2)cc1	6.93
CC(C)c1ccc([C@](O)(c2cncc(-c3nc([C@@H]4C[C@H]5CC[C@@H]4O5)no3)c2)C2(C)CN(C)C2)cc1	7.09
CC(C)c1ccc([C@](O)(c2cncc(-c3noc(CCC4CCOCC4)n3)c2)C2(C)CN(C)C2)cc1	7.39
